meta.source: ChEMBL document CHEMBL3997810

Test system: MCF7
Assay: Antiproliferative activity against human MCF7 cells after 72 hrs by MTT assay
Format: functional, cell-based
Details: MCF7, 72 h
Mark Fulfilled for IC50 under 3 µM, Not fulfilled if at or over.

1) C=C1C(=O)[C@]23[C@H](OC(=O)c4cccc(Cl)c4)[C@H]1CC[C@H]2[C@]12C=CCC(C)(C)[C@H]1[C@H](O)[C@]3(O)OC2
Fulfilled
2) C=C1C(=O)[C@]23[C@H](OC(=O)c4cccc(C)c4C)[C@H]1CC[C@H]2[C@]12C=CCC(C)(C)[C@H]1[C@H](O)[C@]3(O)OC2
Not fulfilled
3) C=C1C(=O)[C@@]23[C@@H]4OC(C)(C)O[C@@]25OC[C@]2([C@@H]6O[C@@H]6CC(C)(C)[C@H]2[C@@H]5O)[C@@H]3CC[C@@H]14
Fulfilled
4) C=C1C(=O)[C@]23[C@H](OC(C)=O)[C@H]1CC[C@H]2[C@]12C=CC(=O)C(C)(C)[C@H]1[C@H](O)[C@]3(O)OC2
Not fulfilled
5) C=C1C(=O)[C@]23[C@H](OC(=O)/C=C/c4ccccc4OC)[C@H]1CC[C@H]2[C@]12C=CCC(C)(C)[C@H]1[C@H](O)[C@]3(O)OC2
Fulfilled
6) C=C1C(=O)[C@]23[C@H](OC(=O)c4ccccc4C(F)(F)F)[C@H]1CC[C@H]2[C@]12C=CCC(C)(C)[C@H]1[C@H](O)[C@]3(O)OC2
Fulfilled
7) C=C1C(=O)[C@]23[C@H](OC(=O)c4c(OC)cccc4OC)[C@H]1CC[C@H]2[C@]12C=CCC(C)(C)[C@H]1[C@H](O)[C@]3(O)OC2
Not fulfilled
8) C=C1C(=O)[C@]23[C@H](O)[C@H]1CC[C@H]2[C@@]12CO[C@@]3(O)[C@@H](O)[C@@H]1C(C)(C)C[C@H](Cl)[C@H]2O
Not fulfilled

====

Test system: MCF7
Test: Cytotoxicity against human MCF7 cells at 10 to 50 uM after 24 hrs by LDH assay
Type: functional, cell-based
Calls of active or inactive are those of the source. No cut-off for these calls is given here.
OBSERVABLE: Activity

1) C=C1C(=O)[C@]23[C@H](OC(=O)CCCCCCC)[C@H]1CC[C@H]2[C@]12C=CCC(C)(C)[C@H]1[C@H](O)[C@]3(O)OC2
inactive
2) C=C1C(=O)[C@]23[C@H](O)[C@H]1CC[C@H]2[C@@]12CO[C@@]3(O)[C@@H](O)[C@@H]1C(C)(C)C[C@H]1O[C@H]12
inactive
3) C=C1C(=O)[C@]23[C@H](O)[C@H]1CC[C@H]2[C@]12C=CC(=O)C(C)(C)[C@H]1[C@H](O)[C@]3(O)OC2
inactive
4) C=C1C(=O)[C@]23[C@H](O)[C@H]1CC[C@H]2[C@@]12CO[C@@]3(O)[C@@H](O)[C@@H]1C(C)(C)C[C@H](Cl)[C@H]2O
inactive
5) C=C1C(=O)[C@]23[C@H](OC(=O)/C=C/c4ccccc4)[C@H]1CC[C@H]2[C@]12C=CCC(C)(C)[C@H]1[C@H](O)[C@]3(O)OC2
inactive
6) C=C1C(=O)[C@]23[C@H](O)[C@H]1CC[C@H]2[C@]12C=CCC(C)(C)[C@H]1[C@H](O)[C@]3(O)OC2
inactive
7) C=C1C(=O)[C@]23[C@H](O)[C@H]1CC[C@H]2[C@@]12CO[C@]3(O)[C@@H](O)[C@@H]1C(C)(C)CC[C@@H]2O
inactive

====

Quick reference for pIC50 among some compounds
Test: Antiproliferative activity against human NCI-H460/MX20 cells after 48 hrs by MTT assay
Assay type: functional, cell-based
Conditions: NCI-H460/MX20, 48 h
pIC50: −log10 of the molar value.
OBSERVABLE: pIC50

1. C=C1C(=O)[C@]23[C@H](O)[C@H]1CC[C@H]2[C@]12C=CC(=O)C(C)(C)[C@H]1[C@H](O)[C@]3(O)OC2
4.27
2. C=C1C(=O)[C@]23[C@H](O)[C@H]1CC[C@H]2[C@@]12CO[C@@]3(O)[C@@H](O)[C@@H]1C(C)(C)C[C@H](Cl)[C@H]2O
4.31
3. C=C1C(=O)[C@]23[C@H](OC(=O)c4ccc(Br)cc4)[C@H]1CC[C@H]2[C@]12C=CCC(C)(C)[C@H]1[C@H](O)[C@]3(O)OC2
5.33

====

Tested on: MCF7
Experiment: Antiproliferative activity against human MCF7 cells after 72 hrs by MTT assay
Type: functional, cell-based
Conditions: MCF7, 72 h
pIC50: −log10 of the molar value.
Mark FALSE for pIC50 values under 6, and TRUE for everything at or above.

1. C=C1C(=O)[C@]23[C@H](OC(=O)/C=C/c4ccc(F)cc4)[C@H]1CC[C@H]2[C@]12C=CCC(C)(C)[C@H]1[C@H](O)[C@]3(O)OC2
FALSE
2. C=C1C(=O)[C@]23[C@H](OC(=O)c4ccc(Br)cc4)[C@H]1CC[C@H]2[C@]12C=CCC(C)(C)[C@H]1[C@H](O)[C@]3(O)OC2
TRUE
3. C=C1C(=O)[C@]23[C@H](O)[C@H]1CC[C@H]2[C@@]12CO[C@]3(O)[C@@H](O)[C@@H]1C(C)(C)CC[C@@H]2O [ORIDONIN]
FALSE
4. C=C1C(=O)[C@]23[C@H](OC(=O)/C=C/c4cc(OC)c(OC)c(OC)c4)[C@H]1CC[C@H]2[C@]12C=CCC(C)(C)[C@H]1[C@H](O)[C@]3(O)OC2
FALSE
5. C=C1C(=O)[C@]23[C@H](O)[C@H]1CC[C@H]2[C@]12C=CC(=O)C(C)(C)[C@H]1[C@H](O)[C@]3(O)OC2
FALSE

====

Tested on: MCF7
Test: Antiproliferative activity against human MCF7 cells after 72 hrs by MTT assay
Format: functional, cell-based
Details: MCF7, 72 h
pIC50: −log10 of the molar value.
OBSERVABLE: pIC50

1) C=C1C(=O)[C@]23[C@H](OC(=O)C4CCCCC4)[C@H]1CC[C@H]2[C@]12C=CCC(C)(C)[C@H]1[C@H](O)[C@]3(O)OC2
5.23
2) C=C1C(=O)[C@]23[C@H](OC(C)=O)[C@H]1CC[C@H]2[C@]12C=CCC(C)(C)[C@H]1[C@H](O)[C@]3(O)OC2
5.59
3) C=C1C(=O)[C@]23[C@H](OC(=O)c4ccc([N+](=O)[O-])cc4)[C@H]1CC[C@H]2[C@]12C=CCC(C)(C)[C@H]1[C@H](O)[C@]3(O)OC2
5.35
4) C=C1C(=O)[C@]23[C@H](OC(=O)c4cc(C)ccc4C)[C@H]1CC[C@H]2[C@]12C=CCC(C)(C)[C@H]1[C@H](O)[C@]3(O)OC2
5.21
5) C=C1C(=O)[C@]23[C@H](OC(=O)c4ccccc4C(F)(F)F)[C@H]1CC[C@H]2[C@]12C=CC(=O)C(C)(C)[C@H]1[C@H](O)[C@]3(O)OC2
5.42
6) C=C1C(=O)[C@]23[C@H](OC(=O)c4cc(F)c(F)c(F)c4F)[C@H]1CC[C@H]2[C@]12C=CCC(C)(C)[C@H]1[C@H](O)[C@]3(O)OC2
5.68
7) C=C1C(=O)[C@]23[C@H](OC(=O)c4ccnc(Cl)c4)[C@H]1CC[C@H]2[C@]12C=CC(=O)C(C)(C)[C@H]1[C@H](O)[C@]3(O)OC2
5.29
8) C=C1C(=O)[C@]23[C@H](O)[C@H]1CC[C@H]2[C@]12C=C[C@H](O)C(C)(C)[C@H]1[C@H](O)[C@]3(O)OC2
3.52
9) C=C1C(=O)[C@]23[C@H](OC(=O)CCCC)[C@H]1CC[C@H]2[C@]12C=CCC(C)(C)[C@H]1[C@H](O)[C@]3(O)OC2
5.60
10) O=c1[nH]cc(F)c(=O)[nH]1
5.76
11) C=C1C(=O)[C@]23[C@H](O)[C@H]1CC[C@H]2[C@]12C=CCC(C)(C)[C@H]1[C@H](O)[C@]3(O)OC2
5.70
12) C=C1C(=O)[C@]23[C@H](OC(=O)/C=C/c4cccc([N+](=O)[O-])c4)[C@H]1CC[C@H]2[C@]12C=CCC(C)(C)[C@H]1[C@H](O)[C@]3(O)OC2
5.86

====

System: MCF7
Assay: Antitumor activity against human MCF7 cells xenografted in Balb/c nude mouse assessed as tumor growth inhibition at 20 mg/kg/day, iv for 4 weeks relative to control
Format: functional
Details: 672 h, read-out: TGI
OBSERVABLE: inhibition in vivo at 20 mg/kg/day (%)

1) C=C1C(=O)[C@]23[C@H](O)[C@H]1CC[C@H]2[C@@]12CO[C@]3(O)[C@@H](O)[C@@H]1C(C)(C)CC[C@@H]2O
58.9
2) C=C1C(=O)[C@]23[C@H](OC(=O)/C=C/c4ccccc4)[C@H]1CC[C@H]2[C@]12C=CCC(C)(C)[C@H]1[C@H](O)[C@]3(O)OC2
69.8
3) O=P1(N(CCCl)CCCl)NCCCO1 (centres undefined) [CYCLOPHOSPHAMIDE ANHYDROUS]
64.6
4) C=C1C(=O)[C@]23[C@H](O)[C@H]1CC[C@H]2[C@]12C=CCC(C)(C)[C@H]1[C@H](O)[C@]3(O)OC2
61.6
